Values compiled from patent US8853258B2.

# Test system: Acinetobacter baumanii/haemolyticus: Multidrug-resistant clinical isolate (AB-3167)
# ASSAY REMARKS: MIC determination (CLSI), AB-3167
# Assay type: cell-based
# SETTINGS: Acinetobacter baumanii/haemolyticus multidrug-resistant clinical isolate AB-3167
VALUE KIND: AB-3167 MIC (µg/mL)
Answers are plain numbers, in µg/mL.

Parameters: items (list). Returns: AB-3167 MIC for each item.
1. CC(CCc1ccc(-c2c(F)cccc2F)cc1)(C(=O)NO)S(C)(=O)=O (racemic)
2. CC(CCc1ccc(-c2ccc(OCCO)c(F)c2F)cc1)(C(=O)NO)S(C)(=O)=O (centres unmarked)
3. CC(CCc1ccc(-c2cc(F)c(C#N)c(F)c2)cc1)(C(=O)NO)S(C)(=O)=O (centres unmarked)
4. CC(CCc1ccc(-c2ccc(F)cc2F)cc1)(C(=O)NO)S(C)(=O)=O (racemic)

1. 16
2. 32
3. 32
4. 8

====

# Tested on: Klebsiella pneumoniae: Ciprofloxacin-resistant isolate, ESBL, clinical isolate (KP-3700)
# ASSAY REMARKS: MIC determination (CLSI), KP-3700
# Type: cell-based
# Method: The in vitro antibacterial activity of compounds described in the Examples was evaluated by minimum inhibitory concentration (MIC) testing according to Clinical and Laboratory Standards Institute (CLSI, formerly NCCLS) guidelines. See: Clinical and Laboratory Standards Institute. Methods for Dilution Antimicrobial Susceptibility Tests for Bacteria that Grow Aerobically; Approved Standard-Seventh Edition. CLSI document M7-A7 [ISBN 1-56238-587-9]. […]
VALUE KIND: KP-3700 MIC

Sample answers from the record:
MOLECULE: CC(CCc1ccc(Br)cc1)(C(=O)NO)S(C)(=O)=O (stereo not drawn) [Example 32]
KP-3700 MIC: ≧64 mg/L
--
MOLECULE: Cc1cccc(-c2nc(COc3ccc(CCC(C)(C(=O)NO)S(C)(=O)=O)cc3)c(C)o2)c1 (stereo not drawn) [Example 278]
KP-3700 MIC: ≧64 mg/L
--
MOLECULE: COc1ccc(CCC(C)(C(=O)NO)S(C)(=O)=O)cc1 (stereo not drawn) [Example 135]
KP-3700 MIC: ≧64 mg/L
--
MOLECULE: CC(CCc1ccc(-c2ccc(S(C)(=O)=O)cc2)cc1)(C(=O)NO)S(C)(=O)=O (racemic) [Example 79]
KP-3700 MIC: ≧64 mg/L
--
MOLECULE: COc1ncccc1-c1ccc(CCC(C)(C(=O)NO)S(C)(=O)=O)cc1 (racemic) [Example 76]
KP-3700 MIC: ≧64 mg/L

Entry CC(CCc1ccc(-c2ccccc2O)cc1)(C(=O)NO)S(C)(=O)=O (stereo not drawn) [Example 8] ; KP-3700 MIC = ≧64 mg/L

====

# ASSAY TARGET: Pseudomonas aeruginosa LpxC enzyme (Pseudomonas aeruginosa (strain ATCC 15692 / DSM 22644 / CIP 104116 / JCM 14847 / LMG 12228 / 1C / PRS 101 / PAO1))
# ASSAY REMARKS: IC50 Assay, LpxC Enzyme from P. aeruginosa (PA LpxC Enzyme IC50)
# Type: biochemical
# SETTINGS: P. aeruginosa LpxC enzyme; read-out: PA LpxC enzyeme IC50
Please go through the items and note down their pIC50.
Give bare numbers, as −log10 of the molar value.

Sample answers from the record:
COMPOUND: CC(CCc1ccc(-c2cccc(F)c2)cc1)(C(=O)NO)S(C)(=O)=O (centres unmarked)
pIC50: 9.47
--
COMPOUND: CC(=O)c1ccc(-c2ccc(CCC(C)(C(=O)NO)S(C)(=O)=O)cc2)cc1O (centres unmarked)
pIC50: 9.86
--
COMPOUND: CC(CCc1ccc(-c2ccc(CCO)cc2)cc1)(C(=O)NO)S(C)(=O)=O (centres unmarked)
pIC50: 9.48
--
COMPOUND: CC(CCc1ccc(-c2ccc3[nH]ccc3c2)cc1)(C(=O)NO)S(C)(=O)=O (centres unmarked)
pIC50: 9.53
--
COMPOUND: C[C@@](CCc1ccc(-c2ccc(OCC(=O)N3CC(O)C3)cc2)cc1)(C(=O)NO)S(C)(=O)=O
pIC50: 9.29
--
COMPOUND: C[C@@](CCc1ccc(-c2ccc(C#N)cn2)cc1)(C(=O)NO)S(C)(=O)=O
pIC50: 9.09
--
COMPOUND: CC(CCc1ccc(-c2ccc(Cl)cc2)cc1)(C(=O)NO)S(C)(=O)=O (centres unmarked)
pIC50: 10.17

Next compound, please.
Entry CC(=O)c1ccc(-c2ccc(CC[C@](C)(C(=O)NO)S(C)(=O)=O)cc2)cc1 ; pIC50 = 10.17
